Record form. Attribute: growth inhibition. Fill in for each entry.
- PROTOCOL_DESCRIPTION: NCI Yeast Anticancer Drug Screen. Data for the cln2 rad14 strain (AID 165);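 note: 0% = growth equal to vehicle treated cultures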
- RUN_CONDITIONS: S. cerevisiae cln2 rad14 strain, at 50.0 µM, hits give high values
The panel holds about 79,000 compounds, 15% with a hit somewhere; the sample as a whole holds those more often.
One number for each entry, in %.

>>> val("NC(N)=N/N=C(\\c1nc2ccc([N+](=O)[O-])cc2[nH]c1=O)C(O)c1ccc([N+](=O)[O-])cc1 (stereo not given)")
-24.1
>>> val("CC(C)C(=O)C(C)(C)CCc1ccccn1")
-15.8

# batch: return growth inhibition for each of the 3 compounds below
1. C[Si](C)(OCCS(=O)(=O)O)C1S(=O)(=O)OCCOS1(=O)=O
2. CCOC(=O)C(=CN(C)c1ccc(C)cc1)C(=O)OCC
3. CCOC(=O)n1cccc(C)c1=N

Result:
1. 8.6
2. 9.7
3. -17.2

For each of the compounds below, note its growth inhibition.
1. Cc1cc(NCCN(C(C)C)C(C)C)nc(Nc2nc3ccc(Cl)cc3[nH]2)n1
2. COc1ccc(C(c2ccc(N(Cc3ccccc3)Cc3ccccc3)cc2NC(C)=O)c2ccc(N(Cc3ccccc3)Cc3ccccc3)cc2NC(C)=O)cc1OC
3. O=C(Nc1cc(Cl)ccc1Cl)c1ccc(Cl)cc1
4. O=C(NCCc1ccccc1)[C@H]1CCCC[C@@H]1CCO
5. c1ccc(N2CCN(CCCN3CCc4c([nH]c5ccccc45)C3c3cccnc3)CC2)cc1 (stereo not given)

Result:
1. -45.2
2. -8.55
3. -44
4. 0.4
5. 14.1
